target: full-length beta-Catenin (Uniprot ID P35222) (Homo sapiens (Human)) (UniProt P35222); test: fluorescence polarization competition against 5FAM-TCF4(10-53), full-length beta-catenin
Sequence (P35222 whole entry): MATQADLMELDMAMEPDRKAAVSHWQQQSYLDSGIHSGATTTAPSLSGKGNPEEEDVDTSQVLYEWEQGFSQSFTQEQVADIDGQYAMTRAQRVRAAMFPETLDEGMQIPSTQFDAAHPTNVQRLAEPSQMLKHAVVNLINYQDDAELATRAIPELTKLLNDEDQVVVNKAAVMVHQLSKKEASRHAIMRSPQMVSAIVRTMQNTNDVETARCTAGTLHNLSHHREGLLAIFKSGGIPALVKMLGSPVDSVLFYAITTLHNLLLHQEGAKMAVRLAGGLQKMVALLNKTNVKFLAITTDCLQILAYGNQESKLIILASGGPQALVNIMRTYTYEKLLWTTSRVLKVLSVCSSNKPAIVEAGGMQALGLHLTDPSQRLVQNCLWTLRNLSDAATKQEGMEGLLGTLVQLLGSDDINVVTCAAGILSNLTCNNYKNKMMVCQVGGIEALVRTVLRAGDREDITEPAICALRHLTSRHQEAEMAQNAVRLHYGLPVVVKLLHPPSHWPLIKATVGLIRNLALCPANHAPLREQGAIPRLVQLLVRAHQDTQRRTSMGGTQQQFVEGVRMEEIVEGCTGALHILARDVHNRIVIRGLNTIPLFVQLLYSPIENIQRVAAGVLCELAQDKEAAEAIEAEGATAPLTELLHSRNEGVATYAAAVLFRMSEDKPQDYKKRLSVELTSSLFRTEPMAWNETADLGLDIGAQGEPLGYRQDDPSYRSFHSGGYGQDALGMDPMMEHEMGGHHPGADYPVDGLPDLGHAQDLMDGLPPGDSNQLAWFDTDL
Starred links: 1 amine or outer side, 2 acyl side, 3 side chain; linkers in the order of their positions; H or OH if unused. Positions of bridges follow the written chain, without caps; N, C: chain ends. Non-standard residues stand in square brackets, D forms with d. Primed or numbered codes have the meaning given here. *: point of attachment. PyrS2″ = (S)-3-amino-1-((pent-4-en-1-yloxy)carbonyl)pyrrolidine-3-carboxylic acid (stapling residue), C=CCCCOC(=O)N1CC[C@@](N[*:1])(C(=O)[*:2])C1; B5(4) = 2,2-bis(4-pentenyl)glycine = 2-amino-2-(pent-4-en-1-yl)hept-6-enoic acid (stitching residue), C=CCCCC(CCCC=C)(N[*:1])C(=O)[*:2]; PyrS2 = (S)-3-amino-1-((pent-4-en-1-yloxy)carbonyl)pyrrolidine-3-carboxylic acid, C=CCCCOC(=O)N1CC[C@@](N[*:1])(C(=O)[*:2])C1; Phe(3-COOH) = N[C@@H](Cc1cccc(C(=O)O)c1)C(=O)O; Phe(2-CF3) = N[C@@H](Cc1ccccc1C(F)(F)F)C(=O)O; Phe(3,4-Me2) = Cc1ccc(C[C@H](N)C(=O)O)cc1C; Phe(2-Cl) = N[C@@H](Cc1ccccc1Cl)C(=O)O; Bta = N[C@@H](Cc1csc2ccccc12)C(=O)O; Isobutyloxycarbonyl = CC(C)COC(=O)*; αAllylPro = C=CC[C@@]1(C(=O)O)CCCN1; tBuAla = CC(C)(C)C[C@H](N)C(=O)O; 3Thi = N[C@@H](Cc1ccsc1)C(=O)O
In this section, each of the binders is paired with its reported IC50.

BINDER	IC50 / nM
Ac-[αAllylPro]D[tBuAla][B5(4)]D[Phe(3-COOH)]QAFL[PyrS2][Phe(2-CF3)][Phe(3,4-Me2)]A-NH2 (staple 1-4, 4-11) [I-2294]	16
Ac-[αAllylPro]D[tBuAla][B5(4)]D[Phe(3-COOH)]QAFV[PyrS2″][3Thi][RbMe2NapA]A-NH2 (staple 1-4, 4-11) [I-2312]	5
Isobutyloxycarbonyl-[αAllylPro]D[tBuAla][B5(4)]D[Phe(3-COOH)]AAFL[PyrS2″][Phe(2-Cl)][Bta]A-NH2 (staple 1-4, 4-11) [I-2305]	65
Ac-[αAllylPro]D[tBuAla][B5(4)]D[Phe(3-COOH)]QAFV[PyrS2″][3Thi][SbMe2NapA]A-NH2 (staple 1-4, 4-11) [I-2314]	48
